# testedOn: recombinant H9 A/HongKong/1073/99 (H9N2) (Influenza A virus A/HongKong/1073/99 (H9N2))
# assayMethodText: SPR, single cycle kinetics, HA immobilised
Quick reference: pKd of the listed items.
Keep it numeric: pKd is minus log10 of the concentration in mol/L.

R2b-E8 (VHH) VHH: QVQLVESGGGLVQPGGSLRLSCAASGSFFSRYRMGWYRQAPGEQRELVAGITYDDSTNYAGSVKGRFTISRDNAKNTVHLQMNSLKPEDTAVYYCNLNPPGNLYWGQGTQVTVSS    7.06
R1a-C5 (VHH) VHH: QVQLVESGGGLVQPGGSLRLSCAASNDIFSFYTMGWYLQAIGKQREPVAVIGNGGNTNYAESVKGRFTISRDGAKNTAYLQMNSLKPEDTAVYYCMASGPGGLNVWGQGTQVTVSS    7.66

*Q* Tell me the measured pKd of R2b-D9 (VHH) VHH: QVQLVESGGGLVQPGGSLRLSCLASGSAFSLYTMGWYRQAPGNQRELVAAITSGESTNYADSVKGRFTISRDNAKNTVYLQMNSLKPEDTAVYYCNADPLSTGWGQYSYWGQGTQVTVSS , please.
*A* 7.23

*Q* What do you have for R1a-B6 (VHH) VHH: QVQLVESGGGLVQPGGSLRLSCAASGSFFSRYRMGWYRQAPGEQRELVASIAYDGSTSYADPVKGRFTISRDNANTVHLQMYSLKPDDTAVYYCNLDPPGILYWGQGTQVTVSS ?
*A* 8.12
